Tested system: his-labeled human IL-13 (immunogen A) (human) (UniProt P35225)
Procedure details: cell-based or functional assay
Each entry below carries its recorded VCAM-1 fluorescence intensity, HUVEC + IL-13 0.5 ng/mL + TNFα; antibody at 0.11 nM.
Provide a numeric answer; units are not to be included.

Answered cases to consult:
Q: Could you share which VCAM-1 fluorescence intensity, HUVEC + IL-13 0.5 ng/mL + TNFα; antibody at 0.11 nM value was measured for c29D9H8 (mouse-human chimeric IL-13 antibody) (antibody, V domains shown) VH: QVQLQQSGAELVRPGASVTLSCKASGYTFTDYEMHWVKQTPVHGLEWIGGIDPETGGTASNQKFKGKAILTADKSSSTAYMELRSLTSEDSAVYYCTSGDYFGGGPFAYWGQGTLVTVSA VL: DIKMTQSPSSMYASLGERVTITCKASQDINSYLSWFQQKPGKSPKTLIYRANRLVDGVPSRFSGSGSGQDYSLTISSLDYEDMGIYYCLQYDEFPYTFGGGTKLEIK ?
Ans: 251

Q: Could you share which VCAM-1 fluorescence intensity, HUVEC + IL-13 0.5 ng/mL + TNFα; antibody at 0.11 nM value was measured for c35E2C3 (mouse-human chimeric IL-13 antibody) (antibody, V domains shown) VH: EVQLQESGPGLAKPSQTLSLTCSVTGYSITSDYWNWIRKFPGNKLEYMGYISYNGNTYYNPSLKSQISITRDTSKNQLYLQLKSATTEDTATYYCARLAKWTWYFDIWGTGTTVTVSS VL: DIQMNQSPSSLSASLGDTITITCHASQNINVWLSWYQQKPGSLPKLLIYKASDLHTGVPSRFSGSGSGTGFTLTISSLQPEDIATYYCQQGQSYPYTFGGGTKLEIK ?
Ans: 313

Q: Could you share which VCAM-1 fluorescence intensity, HUVEC + IL-13 0.5 ng/mL + TNFα; antibody at 0.11 nM value was measured for c28A2E11 (mouse-human chimeric IL-13 antibody) (antibody, V domains shown) VH: EVQLQQSGAELVKPGASVKLSCTASGFNIKDYYMHWVKQRTEQGLEWIGRIDPEDGETKYAPKFHDKATLTADTSSNTAYLQFSSLASEDTAVYYCTRYDYYGPFAYWGQGTLVTVSA VL: QAVVTQESVLTTSPGETVTLTCRSSTGAVTTSNYANWVQEKPDHLFTGLIGGTNNRAPGVPARFSGSLIGDKAALTITGAQTEDEAIYFCALWYINHFIFGSGTKVTVL ?
Ans: 278

Shifting focus to the binder that follows.
Q: Could you share which VCAM-1 fluorescence intensity, HUVEC + IL-13 0.5 ng/mL + TNFα; antibody at 0.11 nM value was measured for c70F10A10 (mouse-human chimeric IL-13 antibody) (antibody, V domains shown) VH: QIQLQQSGAELARPGASVKLSCKASGYTFTSYGISWVKQRDGQGLEWIGEIYPRSGNTDYNEKFKGKATLTADKSSSTAYMELRSLTSEDSAVYFCSSFTTLVPTDYFDYWGQGTTLTVSS VL: DIMMSQSPSSLAVSVGEKVSMTCKSSQSLLYSSNQKNYLAWYQQKPGQSPKMLIYWASTRETGVPDRFTGSGSGTDFTLTISSVMAEDLAVYYCHQYFTYPRTFGDGTKLEVK ?
Ans: 316
